Provenance of the data: ChEMBL document CHEMBL1828609

# test-name: Drug uptake in P-gp transporter knockout FVB mouse brain at 15 mg/kg, iv after 6 hrs
# Format: ADME, organism-based
# Design: dose 15 mg/kg, route intravenous
# settings: read-out: Drug uptake
endpoint-name: concentration at 6 h (ng/g)
Use ng/g as the unit, but write only the number.

Reported concentration at 6 h of "CN1CC(c2c[nH]c3cc(-n4ccc(OCc5ccccc5)cc4=O)ccc23)C1" : 1580

====

# test-name: Plasma concentration in rat at 10 mg/kg, po after 4 hrs
# Format: ADME, organism-based
# Parameters: dose 10 mg/kg, route oral
Each entry below carries its recorded concentration at 4 h.
Return type: number; implicit unit ng/mL.

CN1CC(N2CCc3cc(-n4ccc(-c5ccc(Cl)cc5)cc4=O)ccc32)C1: 190
CN1CC(c2c[nH]c3cc(-n4ccc(-c5ccc(Cl)cc5)cc4=O)ccc23)C1: 350
CN1CC(c2c[nH]c3cc(-n4ccc(OCc5ccccc5F)cc4=O)ccc23)C1: 140
CN1CC(N2CCc3cc(-n4ccc(OCc5ccccc5)cc4=O)ccc32)C1: 500
O=c1cc(OCc2ccccc2)ccn1-c1ccc2c(c1)CCN2C1CNC1: 130

According to the records, this compound "O=c1cc(OCc2ccccc2)ccn1-c1ccc2c(c1)CCN2C1CN(CCF)C1" displays concentration at 4 h of 420

Record "CN1CC(c2c[nH]c3cc(-n4ccc(OCc5ccccc5)cc4=O)ccc23)C1" , field concentration at 4 h: 48

For reference, reported concentration at 4 h for "O=c1cc(-c2ccc(Cl)cc2)ccn1-c1ccc2c(c1)CCN2C1CN(CCF)C1" stands at 650

Form field concentration at 4 h, entry "O=c1cc(OCc2ccccc2)ccn1-c1ccc2c(C3CN(CCF)C3)c[nH]c2c1" : 620

The recorded concentration at 4 h for "COCCN1CC(c2c[nH]c3cc(-n4ccc(OCc5ccccc5)cc4=O)ccc23)C1" is 310

// sample "Cn1cc(C2CN(CCF)C2)c2ccc(-n3ccc(-c4ccc(F)cc4)cc3=O)cc21" , its concentration at 4 h was 1000

====

# test-name: Ratio of drug level in brain to plasma in P-gp transporter knockout FVB mouse after 6 hrs
# Type: ADME, cell-free
# settings: read-out: BPR
endpoint-name: Kp at 6 h

Kp at 6 h reported for this compound "CN1CC(c2c[nH]c3cc(-n4ccc(OCc5ccccc5)cc4=O)ccc23)C1" : 2.3

====

# test-name: Drug uptake in P-gp transporter knockout FVB mouse brain at 15 mg/kg, iv after 8 hrs
# Format: ADME, organism-based
# Set-up: dose 15 mg/kg, route intravenous
# settings: read-out: Drug uptake
endpoint-name: concentration at 8 h (ng/g)
Express your answer in ng/g, writing the number without its unit.

response.value for "CN1CC(c2c[nH]c3cc(-n4ccc(OCc5ccccc5)cc4=O)ccc23)C1" (field: concentration at 8 h) = 1620

====

Quick reference: Ki of the listed items.
# assay-system: Melanin-concentrating hormone receptor 1 (Rattus norvegicus)
# Sequence (P97639 whole entry): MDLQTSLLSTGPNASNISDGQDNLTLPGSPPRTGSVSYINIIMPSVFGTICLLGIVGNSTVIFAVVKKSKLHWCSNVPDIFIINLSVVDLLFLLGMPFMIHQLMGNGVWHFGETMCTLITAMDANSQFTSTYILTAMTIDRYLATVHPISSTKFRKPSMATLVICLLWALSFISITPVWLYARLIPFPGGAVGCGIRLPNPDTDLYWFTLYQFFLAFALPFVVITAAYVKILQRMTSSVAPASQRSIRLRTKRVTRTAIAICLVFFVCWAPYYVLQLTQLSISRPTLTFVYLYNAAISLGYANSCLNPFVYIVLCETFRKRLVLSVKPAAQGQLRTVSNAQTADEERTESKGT
Unit nM implied. Number only.

Recorded Ki, per entry:
CN1CC(c2c[nH]c3cc(-n4ccc(OCc5ccccc5)cc4=O)ccc23)C1: 11
O=c1cc(OCc2ccccc2)ccn1-c1ccc2c(c1)CCN2C1CNC1: 2.4
O=c1cc(OCc2ccccc2)ccn1-c1ccc2c(c1)CCN2C1CN(CCF)C1: 4.9
CN1CC(c2c[nH]c3cc(-n4ccc(-c5ccc(Cl)cc5)cc4=O)ccc23)C1: 7.8

Now consider a different compound.
GET /value?item= "O=c1cc(OCc2ccccc2)ccn1-c1ccc2c(C3CN(CCF)C3)c[nH]c2c1" &field=Ki returns 4.3

====

# test-name: Ratio of drug level in brain to plasma in P-gp transporter knockout FVB mouse after 8 hrs
# Assay type: ADME, cell-free
# settings: read-out: BPR
endpoint-name: Kp at 8 h
Write no unit; give the number alone.

Query "CN1CC(c2c[nH]c3cc(-n4ccc(OCc5ccccc5)cc4=O)ccc23)C1" yields Kp at 8 h of 2.66

====

# assay-system: Voltage-gated inwardly rectifying potassium channel KCNH2 (Homo sapiens)
# Sequence (Q12809 whole entry): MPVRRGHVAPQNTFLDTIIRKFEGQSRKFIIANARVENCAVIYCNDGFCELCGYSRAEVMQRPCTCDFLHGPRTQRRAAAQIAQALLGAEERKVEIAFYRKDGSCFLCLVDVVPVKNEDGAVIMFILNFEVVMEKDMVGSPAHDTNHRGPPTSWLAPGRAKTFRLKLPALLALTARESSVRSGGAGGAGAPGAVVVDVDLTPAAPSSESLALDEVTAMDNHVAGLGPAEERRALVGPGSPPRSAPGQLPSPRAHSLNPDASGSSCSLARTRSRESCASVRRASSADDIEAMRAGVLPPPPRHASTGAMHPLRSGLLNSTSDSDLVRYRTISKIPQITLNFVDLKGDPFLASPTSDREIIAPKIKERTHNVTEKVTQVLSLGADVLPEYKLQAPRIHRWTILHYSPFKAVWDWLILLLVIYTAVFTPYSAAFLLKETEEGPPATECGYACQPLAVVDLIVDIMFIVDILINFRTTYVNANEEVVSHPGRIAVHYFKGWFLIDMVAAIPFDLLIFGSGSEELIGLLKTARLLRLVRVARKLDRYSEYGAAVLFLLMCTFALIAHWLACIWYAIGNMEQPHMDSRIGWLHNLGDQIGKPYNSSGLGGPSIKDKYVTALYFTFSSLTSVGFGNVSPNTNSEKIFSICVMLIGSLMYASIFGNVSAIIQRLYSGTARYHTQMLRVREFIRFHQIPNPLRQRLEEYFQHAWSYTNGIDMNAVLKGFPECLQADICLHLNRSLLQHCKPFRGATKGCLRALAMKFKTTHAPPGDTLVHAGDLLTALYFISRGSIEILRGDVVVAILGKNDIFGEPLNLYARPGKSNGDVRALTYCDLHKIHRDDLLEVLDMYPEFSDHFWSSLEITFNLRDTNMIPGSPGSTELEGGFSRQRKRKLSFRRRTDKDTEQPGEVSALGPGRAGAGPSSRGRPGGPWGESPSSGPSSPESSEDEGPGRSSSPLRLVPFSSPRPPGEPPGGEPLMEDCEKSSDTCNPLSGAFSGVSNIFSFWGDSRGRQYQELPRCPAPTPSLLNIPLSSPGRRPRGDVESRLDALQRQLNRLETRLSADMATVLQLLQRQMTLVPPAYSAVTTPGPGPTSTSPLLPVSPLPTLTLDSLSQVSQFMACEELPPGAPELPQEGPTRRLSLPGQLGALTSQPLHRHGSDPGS
endpoint-name: IC50 (µM)
Express it in µM; write the number only.

IC50 for "CN1CC(c2c[nH]c3cc(-n4ccc(OCc5ccccc5)cc4=O)ccc23)C1" is 12

====

# test-name: Drug uptake in wild type FVB mouse brain at 15 mg/kg, iv after 6 hrs
# Assay type: ADME, organism-based
# Parameters: dose 15 mg/kg, route intravenous
# settings: read-out: Drug uptake
endpoint-name: concentration at 6 h (ng/g)
Write the answer as a number in ng/g, unit excluded.

Please fill in: concentration at 6 h reported for "CN1CC(c2c[nH]c3cc(-n4ccc(OCc5ccccc5)cc4=O)ccc23)C1" = 148

====

# test-name: Efflux ratio of permeability from basolateral to apical over apical to basolateral side of MDCK cells expressing human MDR1 after 2 hrs
# Format: ADME, cell-based, Canis lupus familiaris
# settings: dog
Recorded efflux ratio at 2 h by entry
Respond numerically, and do not add a unit to the figure.

CN1CC(c2c[nH]c3cc(-n4ccc(-c5ccc(Cl)cc5)cc4=O)ccc23)C1: 60
Cn1cc(C2CN(CCF)C2)c2ccc(-n3ccc(-c4ccc(F)cc4)cc3=O)cc21: 6.4
O=c1cc(-c2ccc(Cl)cc2)ccn1-c1ccc2c(c1)CCN2C1CN(CCF)C1: 1
O=c1cc(OCc2ccccc2)ccn1-c1ccc2c(C3CN(CCF)C3)c[nH]c2c1: 43

Now consider a different compound.
Please fill in: efflux ratio at 2 h reported for "COCCN1CC(c2c[nH]c3cc(-n4ccc(OCc5ccccc5)cc4=O)ccc23)C1" = 88

====

# test-name: Drug uptake in wild type FVB mouse brain at 15 mg/kg, iv after 1 hr
# Format: ADME, organism-based
# Parameters: dose 15 mg/kg, route intravenous
# settings: read-out: Drug uptake
endpoint-name: concentration at 1 h (ng/g)
State just the number; it will be interpreted in ng/g.

For reference, reported concentration at 1 h for "CN1CC(c2c[nH]c3cc(-n4ccc(OCc5ccccc5)cc4=O)ccc23)C1" stands at 143

====

# test-name: Plasma concentration in P-gp transporter knockout FVB mouse at 15 mg/kg, iv after 6 hrs
# Type: ADME, organism-based
# Set-up: dose 15 mg/kg, route intravenous
endpoint-name: concentration at 6 h (ng/mL)
Express the result in ng/mL but write the number alone.

Query "CN1CC(c2c[nH]c3cc(-n4ccc(OCc5ccccc5)cc4=O)ccc23)C1" yields concentration at 6 h of 689

====

# test-name: Drug uptake in P-gp transporter knockout FVB mouse brain at 15 mg/kg, iv after 3 hrs
# Format: ADME, organism-based
# Design: dose 15 mg/kg, route intravenous
# settings: read-out: Drug uptake
endpoint-name: concentration at 3 h
# number then unit; no other words

Just so you know, measured concentration at 3 h for "CN1CC(c2c[nH]c3cc(-n4ccc(OCc5ccccc5)cc4=O)ccc23)C1" came out at 1130 ng/g

====

# test-name: Plasma concentration in P-gp transporter knockout FVB mouse at 15 mg/kg, iv after 3 hrs
# Type: ADME, organism-based
# Parameters: dose 15 mg/kg, route intravenous
endpoint-name: concentration at 3 h (ng/mL)
Just the number in ng/mL, nothing appended.

For record "CN1CC(c2c[nH]c3cc(-n4ccc(OCc5ccccc5)cc4=O)ccc23)C1" the listed concentration at 3 h is 1380

====

# test-name: Apparent permeability from apical to basolateral side in MDCK cells expressing human MDR1 after 2 hrs
# Assay type: ADME, cell-based, Canis lupus familiaris
# settings: dog
endpoint-name: Papp A→B at 2 h (×10⁻⁶ cm/s)
Numbers only; they are read as ×10⁻⁶ cm/s.

O=c1cc(OCc2ccccc2)ccn1-c1ccc2c(c1)CCN2C1CN(CCF)C1: 17.7

For "O=c1cc(OCc2ccccc2)ccn1-c1ccc2c(C3CN(CCF)C3)c[nH]c2c1" the molecule record lists Papp A→B at 2 h as 1.4

Per the records, this molecule ( "CN1CC(c2c[nH]c3cc(-n4ccc(OCc5ccccc5F)cc4=O)ccc23)C1" ) has Papp A→B at 2 h equal to 0.2

Form field Papp A→B at 2 h, entry "CN1CC(c2c[nH]c3cc(-n4ccc(-c5ccc(Cl)cc5)cc4=O)ccc23)C1" : 0.9

====

// reported Papp A→B at 2 h per item
# test-name: Apparent permeability from apical to basolateral side in MDCK cells expressing human MDR1 after 2 hrs
# Type: ADME, cell-based, Canis lupus familiaris
# settings: dog
Express it in ×10⁻⁶ cm/s; write the number only.

Answered examples (2):
O=c1cc(-c2ccc(Cl)cc2)ccn1-c1ccc2c(c1)CCN2C1CN(CCF)C1: 28.9
CN1CC(N2CCc3cc(-n4ccc(OCc5ccccc5)cc4=O)ccc32)C1: 2.6

Here's the next entry for you.
Looking up "Cn1cc(C2CN(CCF)C2)c2ccc(-n3ccc(-c4ccc(F)cc4)cc3=O)cc21" , I see its Papp A→B at 2 h listed as 7.1
